Values compiled from ChEMBL document CHEMBL3112448.

molecular target: Prostaglandin G/H synthase 1 (Ovis aries); details: at 50 µM
Description: Inhibition of ovine COX1 at 50 uM by peroxidase activity-based colorimetric assay
Calls of active or inactive are those of the source. The calls are words filed in the database; no cut-off is given here.
Observation type: inhibition

Recorded results for 5 compounds are shown here.
>>> reported_value("COC(=O)Cc1onc(-c2ccc(Cl)o2)c1-c1ccccc1")
"inactive"
>>> reported_value("CN(C)c1onc(-c2ccc(Cl)o2)c1-c1ccccc1")
"inactive"
>>> reported_value("N#CCc1onc(-c2ccc(Cl)o2)c1-c1ccccc1")
"12%"
>>> reported_value("COc1ccccc1-c1noc(C(F)(F)F)c1-c1ccccc1")
"39%"
>>> reported_value("COc1ccccc1-c1noc(C)c1-c1ccccc1")
"61%"

Asked: Entry under review: Clc1ccc(-c2noc(CBr)c2-c2ccccc2)o1 . Reported inhibition?
Given back: 35%
